Assay: Metabolic stability in human liver microsomes
Format: in vitro ADME
Details: pH 7.4; 1 mg/mL human liver microsomes, 1 μM test compound, NADPH regenerating system, 37° C., 0-45 min
For each of the compounds below, state its log10 of microsomal CLint at 1 μM.
Heads up: the numbers are on a log10 scale; they represent microsomal CLint at 1 μM in µL/min/mg.

Example entries begin here.
[[record]]
compound = "C1CCc2nnnn2CC1"
reported_measurement = 0.11

[[record]]
compound = "[2H]C1([2H])c2nnnn2C([2H])([2H])C([2H])([2H])C([2H])([2H])C1([2H])[2H]"
reported_measurement = -0.05

[[record]]
compound = "C[C@]12CC[C@H]3[C@@H](CCC4=CC(=O)CC[C@@]43C)[C@@H]1CC[C@@H]2O [testosterone, reference compound]"
reported_measurement = 1.88

[[record]]
compound = "[2H]C1([2H])CC([2H])([2H])c2nnnn2C([2H])([2H])C1"
reported_measurement = 0.08

[[record]]
compound = "[2H]C1([2H])Cc2nnnn2CC([2H])([2H])C1([2H])[2H]"
reported_measurement = 0.15


Then this compound:
[ask] Which log10 of microsomal CLint at 1 μM is reported for this compound? [2H]C1([2H])CCCC([2H])([2H])n2nnnc21
[reply] 0.11

----------
Test: Metabolic stability in human liver microsomes
Format: in vitro ADME
Conditions: pH 7.4; 1 mg/mL human liver microsomes, 1 μM test compound, NADPH regenerating system, 37° C., 0-45 min
For each of the compounds below, state its half-life at 1 μM.
One number for each entry, in h.

Example entries begin here.
[[record]]
compound = "[2H]C1([2H])CCCC([2H])([2H])n2nnnc21 [Compound 2]"
reported_measurement = 9.23

[[record]]
compound = "[2H]C1([2H])c2nnnn2C([2H])([2H])C([2H])([2H])C([2H])([2H])C1([2H])[2H] [Compound 1]"
reported_measurement = 12.6

[[record]]
compound = "C1CCc2nnnn2CC1 [PTZ, pentylenetetrazole]"
reported_measurement = 8.68

[[record]]
compound = "[2H]C1([2H])CC([2H])([2H])c2nnnn2C([2H])([2H])C1 [Compound 4]"
reported_measurement = 9.45


[ask] Which half-life at 1 μM is reported for this compound? [2H]C1([2H])Cc2nnnn2CC([2H])([2H])C1([2H])[2H] [Compound 3]
[reply] 8.43
